test system: LXFL 529 NSCLC; assay: NCI tumour cell line growth inhibition, 48 h
The entries below are paired with their reported TGI.
Value Kind: TGI

Compound | Assay Value
N#CC(C(=N/O)/C(=N\O)C(C#N)c1ccccc1)c1ccccc1 (centres undefined) | > 100 µM
Cc1ccc(C)c(NC(=O)C(=O)C2C(=O)N(c3ccccc3)N=C2N)c1 (centres undefined) | > 100 µM
O=S(O)CCCSSSCCCS(=O)O | > 100 µM
Cc1cccc2c1Sc1ccccc1C2NC(=O)CN(C)C (centres undefined) | > 100 µM
CCCS(=O)c1nc(COC(=O)NC)c(COC(=O)NC)n1C (centres undefined) | > 100 µM
NCCCC(N=Cc1nc(-c2ccccc2)oc1O)C(=O)O (centres undefined) | > 100 µM
Nc1ccc(Cn2ccc3c4c(N)nc(N)nc4ccc32)cc1 | 15.7 µM
O=[N+]([O-])c1ccc(C2SCc3nc4ccccc4n32)cc1 (centres undefined) | > 100 µM
Cc1cc(N(CCC#N)CCC#N)ccc1/C=C(\NC(=O)/C=C/c1ccccc1)C(=O)Nc1ccc(Cl)cc1 | > 100 µM
O=C(Nc1ccc([N+](=O)[O-])cc1[N+](=O)[O-])C(=O)C(C(=O)c1ccc(Cl)c(Cl)c1)C1OC(=O)c2ccccc21 (centres undefined) | 47.3 µM
COC(=O)c1ccc(C(=O)OC)c2nc3cc(Cl)ccc3nc12 | > 100 µM
COC(=O)C12C34C=CC5(CCC6(C=CC1(CC3)O6)C52C(=O)OC)O4 (centres undefined) | > 100 µM
Nn1c(-c2cccc(Cl)c2)nc2ccccc2c1=O | > 100 µM
CCCCCCCCC(C)CCCCCCCCC(=O)OCC(COP(=O)([O-])OCC[N+](C)(C)C)OC(=O)CCCCCCCCC(C)CCCCCCCC (centres undefined) | > 100 µM
CN(CCCN1C(=O)c2cccc3cc([N+](=O)[O-])cc(c23)C1=O)CCN(C)CCCN1C(=O)c2cccc3cc([N+](=O)[O-])cc(c23)C1=O | > 39.3 µM
CCCCCN(CCCCC)C(=O)[C@H](CCC(=O)O)NC(=O)c1cc2ccccc2[nH]1 | > 100 µM
Cc1ccc(C2[C@H]3C(=O)N(c4ccc(Cc5ccc(N6C(=O)[C@@H]7ON(c8ccccc8)C(c8ccc(C)cc8)[C@@H]7C6=O)cc5)cc4)C(=O)[C@H]3ON2c2ccccc2)cc1 (some centres undefined) | > 100 µM
O=C(O)/C(Cl)=C(Cl)/C=N/NC(=O)c1cc2ccccc2cc1O | > 100 µM
CCCCCCCCCCCCCCCCCCOCC(C[N+]1(C)CCC(O)CC1)OCC (centres undefined) | 11 µM

###

system: 786-0 renal; experiment: NCI tumour cell line growth inhibition, 48 h
# if value of TGI reaches 20 µM, tag y; if it stays below, tag n

Compound | Experimental Target | Qualitative Label
CC1(C2COC(=O)C2)SCCCS1 (stereo unspecified) | 786-0 renal | y
CCOC(=O)c1csc(C(CSCc2ccc(OC)cc2)N2C(=O)c3ccccc3C2=O)n1 (stereo unspecified) | 786-0 renal | y
CC(=O)c1c2c(cc3c1CC1(Cc4cc5c(cc4C1)C(=O)CCC5)C3)CCCC2 (stereo unspecified) | 786-0 renal | y
CC(C)(C)C(=O)c1c(C(F)(F)F)n([O-])c2cc(Cl)c(Cl)cc2[n+]1=O | 786-0 renal | n
CCCCCCCCC(C)CCCCCCCCC(=O)OCC(COP(=O)([O-])OCC[N+](C)(C)C)OC(=O)CCCCCCCCC(C)CCCCCCCC (stereo unspecified) | 786-0 renal | y
Cc1cc2c3c([n+](C)c4ccc(F)cc4c3c1)-c1cc(F)ccc1N2C | 786-0 renal | y
O=C1CC(Cc2n[nH]c3c2CCCC3)CC(=O)N1 | 786-0 renal | y
CCCCCCCCCCCCCCCCCCOCC(C[N+]1(C)CCC(O)CC1)OCC (stereo unspecified) | 786-0 renal | n
CC1=CC(C)(C)Nc2ccc(Cc3ccc4c(c3)C(C)=CC(C)(C)N4)cc21 | 786-0 renal | y
Cc1c(NC(=O)Nc2c(Cl)cccc2Cl)c(=O)n(-c2ccccc2)n1C | 786-0 renal | y
O=C(CSC(c1ccccc1)c1ccccc1)N/N=C/c1ccccc1Cl | 786-0 renal | y
COC(=O)C(=O)C(C(C)=O)C(=O)NCc1ccccc1 (stereo unspecified) | 786-0 renal | y
CN(C(=S)Cc1ccc(Cl)c(Cl)c1)C1CCCC[C@@H]1N1CCCC1 (stereo partly specified) | 786-0 renal | y
COc1ccc2nc3n(c2c1)C(c1c(F)cccc1F)SC3 (stereo unspecified) | 786-0 renal | y
C[C@]12Cc3conc3C(O)=C1CC[C@@H]1C2CC[C@@]2(C)C1CC[C@]2(C)O (stereo partly specified) | 786-0 renal | y
COC(=O)[C@@H](NC(=O)[C@H](N)Cc1ccc(N(CCCl)CCCl)cc1)C(C)C | 786-0 renal | y
C=CCSC1=N/C(=C\c2ccc(OC)cc2)C(=O)N1CC=C | 786-0 renal | y
O=C(N=Nc1c(Cl)c(O)c2ccccc2c1O)C(=O)Nc1cccc(C(F)(F)F)c1 | 786-0 renal | y
COC(=O)C12C34C=CC5(CCC6(C=CC1(CC3)O6)C52C(=O)OC)O4 (stereo unspecified) | 786-0 renal | y
Cc1ccc(-c2c3c(nn2-c2ccc(S(=O)(=O)NC(=O)NC4CCCCC4)cc2)-c2ccccc2C3)cc1 | 786-0 renal | n
Cc1cc(Cl)nc(N(CCCNc2ccnc3cc(Cl)ccc23)Cc2cccs2)n1 | 786-0 renal | n

###

# maps each entry to its log10 TGI
tested on: NCI-H522 lung; assay: NCI tumour cell line growth inhibition, 48 h
Value Kind: log10 TGI (log10 of the value in µM)

Molecule | Experimental Target | log10 TGI
CC(C)c1[nH]nc2c(NCc3ccc(-c4ccccn4)cc3)nc(SCCN)nc12 | NCI-H522 lung | -0.83
C=C1C(=O)O[C@H]2[C@H]1CC/C(COC(=O)CCCCCCCC(=O)OC/C1=C/CC[C@@]3(C)O[C@H]3[C@H]3OC(=O)C(=C)[C@@H]3CC1)=C\CC[C@@]1(C)O[C@@H]21 | NCI-H522 lung | 0.59
O=CC(O)C(O)C1OC(=O)c2cc(O)c(O)c(O)c2C2=C(O)C(O)=C3OC(=O)c4c(c(O)c(O)c5c4C3C2C(=O)O5)-c2c(cc(O)c(O)c2O)C(=O)OCC1O (configuration not stated) | NCI-H522 lung | 1.94
O=C(Nc1ccc([N+](=O)[O-])cc1[N+](=O)[O-])C(=O)C(C(=O)c1ccc(Cl)c(Cl)c1)C1OC(=O)c2ccccc21 (configuration not stated) | NCI-H522 lung | 1.65
O=C(N/N=C/c1cc(Cl)ccc1O)c1ccccc1Nc1ccnc(C(F)(F)F)c1 | NCI-H522 lung | 0.81

###

system: HT29 colon; assay: NCI tumour cell line growth inhibition, 48 h; in the data active means GI50 below about 0.43 µM; inactive means the rest
Outcome codes: active, inactive

Compound | Qualitative Label
[Cl][Hg][c]1ccc2ccccc2c1 | inactive
OC(CN1CCCC2CCCCC21)c1cc2ccccc2c2ccccc12 (stereo unspecified) | inactive
Cc1cc(-c2nc3n(c2/C=N/N=C(N)N)CCS3)c(C)s1 | inactive
Cc1ccc(-c2c3c(nn2-c2ccc(S(=O)(=O)NC(=O)NC4CCCCC4)cc2)-c2ccccc2C3)cc1 | inactive
C#CCOc1cccc(Nc2ncnc3cc(NC(=O)C=C)ccc23)c1 | inactive
O=C(N/N=C/c1cc(Cl)ccc1O)c1ccccc1Nc1ccnc(C(F)(F)F)c1 | inactive
CCCCSc1nc(N)c2cn[nH]c2n1 | inactive
CNCC(=O)NC(CO)C(=O)NC(CO)C(=O)NC1C(C(N)=O)OC(n2ccc(N)nc2=O)C(O)C1O (stereo unspecified) | inactive
Cc1c(Cl)cccc1NC(=O)c1sc2nc3c(cc2c1N)C(=O)CCC3 | active
CC(C)c1[nH]nc2c(NCc3ccc(-c4ccccn4)cc3)nc(SCCN(C)C)nc12 | active
C[C@H]1COCCN1c1nc(-c2cnc(N)cc2C(F)F)nc(N2CCOCC2)n1 | active

###

test system: MDA-N; experiment: NCI tumour cell line growth inhibition, 48 h

Compound | TGI
COc1ccc(/C=C2\Sc3nnc(-c4ccccc4)n3N=C2c2cc(F)c(Cl)cc2Cl)cc1OC | > 100 µM
O=[N+]([O-])c1cccc(-c2cn3c(n2)Cc2ccccc2C3)c1 | > 100 µM
CC(=O)O[C@H]1CC[C@H]2[C@@H]3CCC4=C/C(=N/OCCN(C)C)CC[C@]4(C)[C@H]3CC[C@]12C | 14.4 µM
Cn1c2c(c3ccccc3c1=O)C(=O)c1ccccc1-2 | > 100 µM
COC(=O)[C@@H](NC(=O)[C@H](N)Cc1ccc(N(CCCl)CCCl)cc1)C(C)C | > 68 µM
CC(=Nc1cccc(Cl)c1)c1ccncc1 | > 100 µM
CCOC(=O)c1c(N2CCOCC2)ncn(-c2cccc(Cl)c2)c1=O | > 100 µM
COC(=O)[C@]12C3=C(O)C(=O)C[C@H]1OC[C@H]2C=CC3 | > 100 µM
Cc1ccc2c(n1)NC(=O)C(Cc1ccccc1)(N=[N+]=[N-])C2=O (stereo unspecified) | > 100 µM
[Cl][Hg][c]1ccc2ccccc2c1 | 2.88 µM
CC(=O)N1C(CCc2ccccc2)CC(C)(C=O)C1Cc1ccc(O[Si](C(C)C)(C(C)C)C(C)C)cc1 (stereo unspecified) | 6.4 µM
